biological target: Poly(ADP-ribose) glycohydrolase (Homo sapiens, UniProt Q86W56); assay: Inhibition of human full length PARG using Bt-NAD ribosylated PARP1 substrate after 10 mins by TR-FRET assay
Sequence (Q86W56 whole entry): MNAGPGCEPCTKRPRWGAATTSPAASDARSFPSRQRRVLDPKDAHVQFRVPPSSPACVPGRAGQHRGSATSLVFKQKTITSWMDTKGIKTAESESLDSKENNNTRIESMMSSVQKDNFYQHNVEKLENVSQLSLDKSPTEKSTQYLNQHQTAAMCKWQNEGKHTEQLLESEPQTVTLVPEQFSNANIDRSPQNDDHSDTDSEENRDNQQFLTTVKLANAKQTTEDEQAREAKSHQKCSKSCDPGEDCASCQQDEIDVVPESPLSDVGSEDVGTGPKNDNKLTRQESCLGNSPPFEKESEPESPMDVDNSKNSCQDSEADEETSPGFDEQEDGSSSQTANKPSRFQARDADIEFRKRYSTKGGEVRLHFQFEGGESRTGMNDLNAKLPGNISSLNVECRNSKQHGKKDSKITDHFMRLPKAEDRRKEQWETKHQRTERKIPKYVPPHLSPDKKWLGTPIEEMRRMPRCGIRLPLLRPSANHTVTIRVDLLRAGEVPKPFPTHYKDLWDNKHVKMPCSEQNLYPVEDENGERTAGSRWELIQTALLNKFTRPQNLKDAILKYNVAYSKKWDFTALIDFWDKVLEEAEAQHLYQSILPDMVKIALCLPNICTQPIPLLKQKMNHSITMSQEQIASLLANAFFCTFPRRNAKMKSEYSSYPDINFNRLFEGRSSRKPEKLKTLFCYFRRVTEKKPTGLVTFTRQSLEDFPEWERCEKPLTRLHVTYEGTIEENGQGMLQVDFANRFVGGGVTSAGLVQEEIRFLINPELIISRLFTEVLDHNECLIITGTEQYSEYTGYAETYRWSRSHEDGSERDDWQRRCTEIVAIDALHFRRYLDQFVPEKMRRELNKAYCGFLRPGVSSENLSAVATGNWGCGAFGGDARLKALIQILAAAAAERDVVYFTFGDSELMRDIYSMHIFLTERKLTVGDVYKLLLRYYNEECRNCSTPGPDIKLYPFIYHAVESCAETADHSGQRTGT
PROPERTY: EC50 (µM)

>>> value_observed("Cc1nnsc1Cn1c(=O)c2cc(S(=O)(=O)NC3(C)CC3)ccc2n(C)c1=O")
0.88
>>> value_observed("N#CCCNS(=O)(=O)c1ccc2c(c1)C(=O)c1ccccc1C2=O")
88
>>> value_observed("CCn1c(=O)c2cc(S(=O)(=O)NC3(C)CC3)ccc2n(C)c1=O")
4
>>> value_observed("CC(C)(C)NS(=O)(=O)c1ccc2c(c1)C(=O)c1ccccc1C2=O")
81
>>> value_observed("COc1ccccc1Cn1c(=O)n(C)c(=O)c2cc(S(=O)(=O)NC3(C)CC3)ccc21")
3.2
>>> value_observed("Cn1c(=O)n(Cc2ccns2)c(=O)c2cc(S(=O)(=O)NC3(C)CC3)ccc21")
2.3
>>> value_observed("Cn1c(=O)n(Cc2ccccn2)c(=O)c2cc(S(=O)(=O)NC3(C)CC3)ccc21")
16
>>> value_observed("Cc1nc(-c2ccccc2)c(Cn2c(=O)c3cc(S(=O)(=O)NC4(C)CC4)ccc3n(C)c2=O)s1")
12
>>> value_observed("Cn1c(=O)c2cc(S(=O)(=O)NC3(C#N)CC3)ccc2n(C)c1=O")
5
>>> value_observed("Cn1c(=O)c2cc(S(=O)(=O)NC3(C)CC3)ccc2n(Cc2ccccc2F)c1=O")
1.4
>>> value_observed("Cn1cncc1Cn1c(=O)c2cc(S(=O)(=O)NC3(C)CC3)ccc2n(C)c1=O")
3.3
>>> value_observed("C#CCn1c(=O)c2cc(S(=O)(=O)NC3(C)CC3)ccc2n(C)c1=O")
3
>>> value_observed("Cc1cc(Cn2c(=O)n(C)c(=O)c3cc(S(=O)(=O)NC4(C)CC4)ccc32)n(C)n1")
0.38
>>> value_observed("Cn1c(=O)c2cc(S(=O)(=O)NC3(C)CC3)ccc2n(Cc2cccc(F)c2)c1=O")
1.6
>>> value_observed("Cn1c(=O)c2cc(S(=O)(=O)NC3(C)CC3)ccc2n(CC2CCCCC2)c1=O")
0.56
>>> value_observed("C#CCn1c(=O)n(C)c(=O)c2cc(S(=O)(=O)NC3(C)CC3)ccc21")
0.71
>>> value_observed("Cc1nc(C)c(Cn2c(=O)n(C)c(=O)c3cc(S(=O)(=O)NC4(C)CC4)ccc32)s1")
0.18
>>> value_observed("Cn1c(=O)n(Cc2cnc[nH]2)c(=O)c2cc(S(=O)(=O)NC3(C)CC3)ccc21")
4
>>> value_observed("Cc1nnc(Cn2c(=O)c3cc(S(=O)(=O)NC4(C)CC4)ccc3n(C)c2=O)o1")
1.8
>>> value_observed("Cn1c(=O)c2cc(S(=O)(=O)NC3(C)CC3)ccc2n(Cc2cccnc2)c1=O")
1.3
>>> value_observed("Cc1nc(Cn2c(=O)c3cc(S(=O)(=O)NC4(C)CC4)ccc3n(C)c2=O)cs1")
10
>>> value_observed("Cn1c(=O)n(Cc2nccs2)c(=O)c2cc(S(=O)(=O)NC3(C)CC3)ccc21")
13
>>> value_observed("Cc1cc(Cn2c(=O)c3cc(S(=O)(=O)NC4(C)CC4)ccc3n(CC3COC3)c2=O)on1")
0.34
>>> value_observed("Cn1c(=O)n(CC2COC2)c(=O)c2cc(S(=O)(=O)NC3(C)CC3)ccc21")
7
>>> value_observed("Cn1c(=O)c2cc(S(=O)(=O)NC3(C)CC3)ccc2n(CC#N)c1=O")
2.8
